- ASSAY_TEXT: Lipid nanoparticle size and polydispersity by dynamic light scattering (Malvern Zetasizer Nano ZS)
- Assay type: physicochemical
- RECORDED_CONDITIONS: LNP of cationic lipid/DSPC/cholesterol/PEG-lipid 50:10:38.5:1.5 with mRNA
// assign Met if polydispersity falls strictly below 0.1, else Not met (ties count as Not met)

Solved entries:
> print(dat)
                                   molecule  group.label
1  CCCCCCCCCCCCOCC(CN(CCCCCC(=O)OCC(CCCCCC)CCCCCCCC)CCN(CCO)C1CCCCC1)OCCCCCC (stereo not drawn)      Not met
2  CCCCCCCCCCCCOCC(CN(C)CCN(CCO)C1CCCCC1)OCCCCCCCCCCCC (stereo not drawn)      Not met
3  CCCCCCCCC(CCCCCCCC)CNC(=O)CCOC(COCCC(=O)OCC(CCCCCCCC)CCCCCCCC)CN(C)CCN(CCO)C1CCC1 (stereo not drawn)          Met

Problem: Please determine if CCCCCCCCCCCCOCC(CN(C)CCN(CCO)C1CCC1)OC(=O)CCCC (stereo not drawn) is below 0.1 in terms of polydispersity.
Solution: Not met

Problem: Please determine if CCCCCCCCC(CCCCCC)CC(=O)OCC(CCCCN(CCN(CCO)C1CCC1)C1CCC1)COC(=O)CC(CCCCCC)CCCCCCCC (stereo not drawn) is below 0.1 in terms of polydispersity.
Solution: Met

Problem: Please determine if CCCCCCCCCCCCOCC(CN(C)CCN(CCO)C1CCC1)OCCCCCC (stereo not drawn) is below 0.1 in terms of polydispersity.
Solution: Not met

Problem: Please determine if CCCCCCCCCCCCOCC(O)CN(CCCCCC(=O)OCC(CCCCCC)CCCCCCCC)CCN1CCCC1 (stereo not drawn) is below 0.1 in terms of polydispersity.
Solution: Not met

Problem: Please determine if CCCCCCC(CCCCCC)COC(=O)CCCCCN(CCN1CCC(O)C1)CC(COC(=O)CCCCC)OC(=O)CCCCC (stereo not drawn) [Compound 59] is below 0.1 in terms of polydispersity.
Solution: Met

Problem: Please determine if CCCCCCCCCCC(=O)OCC(CCCCN(CCO)C1CCCCC1)COC(=O)CC(CCCCCC)CCCCCCCC (stereo not drawn) is below 0.1 in terms of polydispersity.
Solution: Met

Problem: Please determine if CCCCCCCCC(CCCCCC)CC(=O)OCC(CCCCN(CCO)C1CCCCC1)COC(=O)CC(CCCCCC)CCCCCCCC (stereo not drawn) is below 0.1 in terms of polydispersity.
Solution: Met

Problem: Please determine if CCCCCCCCCCCCOCC(CN(CCO)CCCCCC(=O)OCC(CCCCCC)CCCCCCCC)OC(C)=O (stereo not drawn) is below 0.1 in terms of polydispersity.
Solution: Not met

Problem: Please determine if CCCCCCCCC(CCCCCCCC)COC(=O)CCOCC(CN(C)CCN(CCO)C1CCCC1)OCCC(=O)OCC(CCCCCCCC)CCCCCCCC (stereo not drawn) is below 0.1 in terms of polydispersity.
Solution: Met

Problem: Please determine if CCCCCCCCCCCCCCCC(=O)OCC(CCCCN(CCO)C1CCCC1)COC(=O)CC(CCCCCC)CCCCCCCC (stereo not drawn) is below 0.1 in terms of polydispersity.
Solution: Met

Problem: Please determine if CCCCCCCCC(CCCCCCCC)COC(=O)CCOCC(CN(C)CCN(CCO)C1CC1)OCCC(=O)OCC(CCCCCCCC)CCCCCCCC (stereo not drawn) is below 0.1 in terms of polydispersity.
Solution: Met

Cited source for all entries: patent US11964052B2
